Data credit: paper doi:10.1101/2022.05.17.492379

Target: Nr5a2 (Mus musculus, UniProt P45448 1-560)
Sequence (P45448 whole entry): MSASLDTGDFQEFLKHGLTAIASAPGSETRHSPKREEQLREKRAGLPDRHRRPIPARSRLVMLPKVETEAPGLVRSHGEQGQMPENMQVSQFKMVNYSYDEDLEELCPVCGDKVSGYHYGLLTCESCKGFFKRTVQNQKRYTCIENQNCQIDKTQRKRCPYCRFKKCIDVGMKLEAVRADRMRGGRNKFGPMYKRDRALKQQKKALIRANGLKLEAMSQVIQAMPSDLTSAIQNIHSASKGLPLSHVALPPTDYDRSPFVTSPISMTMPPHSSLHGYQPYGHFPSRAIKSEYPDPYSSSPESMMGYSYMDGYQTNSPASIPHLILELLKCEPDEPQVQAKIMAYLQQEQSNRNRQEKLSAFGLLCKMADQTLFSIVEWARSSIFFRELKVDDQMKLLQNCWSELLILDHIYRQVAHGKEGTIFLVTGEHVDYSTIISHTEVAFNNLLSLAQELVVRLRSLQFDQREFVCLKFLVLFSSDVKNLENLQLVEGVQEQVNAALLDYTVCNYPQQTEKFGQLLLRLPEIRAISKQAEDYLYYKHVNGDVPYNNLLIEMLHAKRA
Assay: fluorescence polarization
readoutLabel: pKd
Notebook: values listed as pKd are -log10 of the concentration (mol/L).

1. Esrrb motif DNA (dsDNA) DNA 1: GAGAGAGTCAAGGTCATGGCTCACT DNA 2: AGTGAGCCATGACCTTGACTCTCTC	8.19

Then this binder:
Read the entry Nr5a2 motif DNA (dsDNA) DNA 1: GAGAGAGTCAAGGCCATGGCTCACT DNA 2: AGTGAGCCATGGCCTTGACTCTCTC and write its reported pKd.
8.25
